- Tested on: Canine-derived epithelial keratinocyte (CPEK) cells
- Assay type: cell-based
- Procedure: Safety of the peptides listed in table 2 was determining by measuring cell viability. Canine-derived epithelial keratinocyte (CPEK) cells were propagated to determine cell viability in the presence of peptides. […] 0.1% TritonX100 as (HPE) and phosphate buffer alone as (ZPE) were added to the plates to calculate percent effect once the assay was terminated with 10 μL CELLTITER-GLO® assay reagents for a luminescent readout.
# note: exactly 20 is not below, so it is n; use y for CPEK (50 μM) strictly under it

Quick check: CPEK (50 μM) of 115 (GWCFRVCYRGICYRRCND; Artificial Antimicrobial peptide) [compound 115] under 20? y

Quick check: CPEK (50 μM) of 8 (KWCFRVCYRGACYRRCRD; Artificial Antimicrobial peptide) [compound 8] under 20? n

Quick check: CPEK (50 μM) of 29 (PKWCFRVCYRGICYRRCRD; Artificial Antimicrobial peptide) [compound 29] under 20? y

Quick check: CPEK (50 μM) of 11 (KWCFRVCYRGICYRRCND; Artificial Antimicrobial peptide) [compound 11] under 20? n

Quick check: CPEK (50 μM) of 112 (KWCFRVCYRGICYRRCKD; Artificial Antimicrobial peptide) [compound 112] under 20? y

Quick check: CPEK (50 μM) of 4 (KFCFRVCYRGICYRRCRD; Artificial antimicrobial peptide) [compound 4] under 20? y

Quick check: CPEK (50 μM) of 116 (KWCFYVCYRGICYRRCND; Artificial Antimicrobial peptide) [compound 116] under 20? y

Quick check: CPEK (50 μM) of 102 (KWCFRACYRGICYRRCRD; Artificial Antimicrobial peptide) [compound 102] under 20? y

Quick check: CPEK (50 μM) of 97 (KRCFRVCYRGICYRRCRD; Artificial Antimicrobial peptide) [compound 97] under 20? y

Quick check: CPEK (50 μM) of 110 (KWCFRVCYRGYCYRRCRD; Artificial Antimicrobial peptide) [compound 110] under 20? y

Quick check: CPEK (50 μM) of 10 (KWCFRVCYRGICYHRCRD; Artificial Antimicrobial peptide) [compound 10] under 20? n

Quick check: CPEK (50 μM) of 108 (KWCFRVCYGGICYRRCRD; Artificial Antimicrobial peptide) [compound 108] under 20? y

Quick check: CPEK (50 μM) of 3 (GWCFRVCYRGICYRRCRD; Artificial Antimicrobial peptide) [compound 3] under 20? n

Quick check: CPEK (50 μM) of 5 (KWCFYVCYRGICYRRCRD; Artificial Antimicrobial peptide) [compound 5] under 20? n

Quick check: CPEK (50 μM) of 104 (KWCFRVCYFGICYRRCRD; Artificial Antimicrobial peptide) [compound 104] under 20? y

Quick check: CPEK (50 μM) of 117 (GWCFYVCYRGICYRRCRD; Artificial Antimicrobial peptide) [compound 117] under 20? y
